inhibition at 1 µM for assorted molecules
Target: c-Myc protein (Homo sapiens, UniProt P01106)
Construct: endogenous in cells; host or cells: HL60 cells
Sequence (P01106 whole entry): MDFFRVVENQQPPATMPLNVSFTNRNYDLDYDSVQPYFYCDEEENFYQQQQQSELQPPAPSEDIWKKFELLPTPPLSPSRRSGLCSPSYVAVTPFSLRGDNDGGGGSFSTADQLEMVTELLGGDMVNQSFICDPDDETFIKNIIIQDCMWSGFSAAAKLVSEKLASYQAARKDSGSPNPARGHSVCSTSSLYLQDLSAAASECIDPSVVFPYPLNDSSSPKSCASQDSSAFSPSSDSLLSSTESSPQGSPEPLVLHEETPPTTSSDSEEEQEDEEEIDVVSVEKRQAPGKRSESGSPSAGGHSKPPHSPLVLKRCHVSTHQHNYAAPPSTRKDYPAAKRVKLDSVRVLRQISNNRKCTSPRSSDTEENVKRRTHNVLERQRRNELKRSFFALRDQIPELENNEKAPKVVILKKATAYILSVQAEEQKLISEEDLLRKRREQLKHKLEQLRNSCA
Assay: Ability of compounds to degrade c-Myc protein in HL60 cells (ELISA)
Type: cell-based
Details: HL-60, 1 μM compound, 24 h, read-out: HL60 cells Protein degradation rate (1 μM)
measured quantity: inhibition at 1 µM

# molecule, result
data = [
    ("O=C(Cn1c2ccccc2c2cccnc21)NCc1ccc(CNC(=O)c2ccc3c(c2)CN(C2CCC(=O)NC2=O)C3=O)cc1OC(F)(F)F (stereo not shown)", "60 to 90%"),
    ("O=C(Cc1ccccc1Br)NCc1ccc(CNC(=O)c2ccc3c(c2)C(=O)N(C2CCC(=O)NC2=O)C3=O)cc1 (stereo not shown)", "60 to 90%"),
    ("CC(C)(C)OC(=O)NC[C@H]1CC[C@H](CNC(=O)c2ccc3c(c2)C(=O)N(C2CCC(=O)NC2=O)C3=O)CC1 (stereo partly shown)", "30 to 60%"),
    ("COc1ccccc1CCC(=O)NCc1ccc(CNC(=O)c2ccc3c(c2)C(=O)N(C2CCC(=O)NC2=O)C3=O)cc1 (stereo not shown)", "60 to 90%"),
    ("O=C(Cn1c2ccccc2c2cccnc21)NCCc1ccc(CNC(=O)c2ccc3c(c2)C(=O)N(C2CCC(=O)NC2=O)C3=O)cc1 (stereo not shown)", "60 to 90%"),
    ("CN(CCc1cccc2ccccc12)Cc1ccc(CNCc2ccc3c(c2)C(=O)N(C2CCC(=O)NC2=O)C3=O)cc1 (stereo not shown)", "60 to 90%"),
    ("O=C(Cc1cccc2ccccc12)NCc1csc(CNC(=O)c2ccc3c(c2)C(=O)N(C2CCC(=O)NC2=O)C3=O)n1 (stereo not shown)", "30 to 60%"),
]
